Test system: Staphylococcus aureus
Experiment: Antibacterial activity against Staphylococcus aureus at 30 ug after 12 hrs
Format: functional
Cut-off 20% on inhibition (INH), inclusive. At or above means TRUE; below means FALSE.

[
  {
    "compound": "Nc1nccnc1C(=O)NN1C(=O)CSC1c1ccc(Cl)cc1Cl (configuration not stated)",
    "assignedCategory": "FALSE"
  },
  {
    "compound": "Cc1cnc(C(=O)NN2C(=O)CS[C@@H]2c2ccc([N+](=O)[O-])cc2)cn1",
    "assignedCategory": "FALSE"
  },
  {
    "compound": "COc1ccc([C@H]2SCC(=O)N2NC(=O)c2nccnc2N)cc1OC",
    "assignedCategory": "TRUE"
  },
  {
    "compound": "Nc1nccnc1C(=O)NN1C(=O)CSC1c1cccc([N+](=O)[O-])c1 (configuration not stated)",
    "assignedCategory": "FALSE"
  },
  {
    "compound": "Nc1nccnc1C(=O)NN1C(=O)CSC1c1ccc(F)cc1 (configuration not stated)",
    "assignedCategory": "FALSE"
  },
  {
    "compound": "Nc1nccnc1C(=O)NN1C(=O)CSC1c1ccc(O)cc1 (configuration not stated)",
    "assignedCategory": "TRUE"
  },
  {
    "compound": "COc1ccc(C2SCC(=O)N2NC(=O)c2cnc(C)cn2)cc1OC (configuration not stated)",
    "assignedCategory": "FALSE"
  },
  {
    "compound": "Cc1cnc(C(=O)NN2C(=O)CSC2c2ccccc2)cn1 (configuration not stated)",
    "assignedCategory": "TRUE"
  },
  {
    "compound": "COc1ccc(C2SCC(=O)N2NC(=O)c2cnc(C)cn2)cc1 (configuration not stated)",
    "assignedCategory": "FALSE"
  },
  {
    "compound": "CCOc1cc([C@H]2SCC(=O)N2NC(=O)c2nccnc2N)ccc1O",
    "assignedCategory": "TRUE"
  }
]

Textbook exercise: given the entry O=C(NN1C(=O)CSC1c1ccc(O)cc1)c1cnccn1 (configuration not stated) , state whether its inhibition (INH) is greater than or equal to 20%. TRUE

Textbook exercise: given the entry Cc1cnc(C(=O)NN2C(=O)CS[C@H]2c2ccc(N(C)C)cc2)cn1 , state whether its inhibition (INH) is greater than or equal to 20%. TRUE
